Test: Pharmacokinetic studies of certain compounds in female Balb/c mice (Example 5)
Format: in vivo
Details: female, Balb/c, mouse, plasma, iv, 1 mg/kg, I-27 IV 1 mg/kg, 0.5 hr, read-out: Plasma concentration Mean
quantity: concentration at 0.5 hr (ng/mL)
// units = ng/mL; emit number, no label

Q) GET /values?readout=concentration at 0.5 hr&item= CC(C)Cc1sc(Nc2ncc(-c3cccs3)cc2C(=O)O)nc1C1(C)CCCCC1 [Compound I-27]
A) 557

###

Test: Pharmacokinetic studies of certain compounds in female Balb/c mice (Example 5)
Type: in vivo
Conditions: mouse, plasma, I-27 IV 1 mg/kg
quantity: AUC(0-t)
Answer with the number, then the unit.

Q) GET /values?readout=AUC(0-t)&item= CC(C)Cc1sc(Nc2ncc(-c3cccs3)cc2C(=O)O)nc1C1(C)CCCCC1
A) 2160 ng·h/mL

###

Assay: Pharmacokinetic studies of certain compounds in female Balb/c mice (Example 5)
Assay type: in vivo
Settings: female, Balb/c, mouse, plasma, po, 30 mg/kg, I-27 PO 30 mg/kg, 1 hr, read-out: Plasma concentration Mean
quantity: concentration at 1 h
Answer with the number, then the unit.

Q) GET /values?readout=concentration at 1 h&item= CC(C)Cc1sc(Nc2ncc(-c3cccs3)cc2C(=O)O)nc1C1(C)CCCCC1 [Compound I-27]
A) 2050 ng/mL

###

Test: Pharmacokinetic study of I-11 in female BALB/c mice (Example 4)
Format: in vivo, Balb/c mouse
Conditions: mouse, plasma, PO 100 mg/kg
quantity: AUC(0-inf) (ng·h/mL)
// units = ng·h/mL; emit number, no label

Q) GET /values?readout=AUC(0-inf)&item= CC(C)Cc1sc(Nc2ncc(-c3cccs3)cc2C(=O)O)nc1C(C)(C)C [Compound I-11]
A) 63400

###

Experiment: Pharmacokinetic studies of certain compounds in female Balb/c mice (Example 5)
Assay type: in vivo
Conditions: female, Balb/c, mouse, plasma, po, 50 mg/kg, I-8 PO 50 mg/kg, 8 hr, read-out: Plasma concentration Mean
quantity: concentration at 8 h
Answer with the number, then the unit.

Q) GET /values?readout=concentration at 8 h&item= CC(C)Cc1sc(Nc2ncc(-c3cccs3)cc2C(=O)O)nc1C1=CCCC1 [Compound I-8]
A) 139 ng/mL

###

Assay: Pharmacokinetic study of I-11 in female BALB/c mice (Example 4)
Type: in vivo, Balb/c mouse
Conditions: female, BALB/c, mouse, plasma, iv, 5 mg/kg, IV 5 mg/kg, 1 hr, read-out: Plasma concentration Mean
quantity: concentration at 1 hr (ng/mL)
// units = ng/mL; emit number, no label

Q) GET /values?readout=concentration at 1 hr&item= CC(C)Cc1sc(Nc2ncc(-c3cccs3)cc2C(=O)O)nc1C(C)(C)C [Compound I-11]
A) 1280

###

Assay: Pharmacokinetic studies of certain compounds in female Balb/c mice (Example 5)
Format: in vivo
Details: female, Balb/c, mouse, plasma, iv, 1 mg/kg, I-8 IV 1 mg/kg, 0.25 hr, read-out: Plasma concentration Mean
quantity: concentration at 0.25 hr (ng/mL)
// units = ng/mL; emit number, no label

Q) GET /values?readout=concentration at 0.25 hr&item= CC(C)Cc1sc(Nc2ncc(-c3cccs3)cc2C(=O)O)nc1C1=CCCC1
A) 726
